Assay: Solubility of compound in PBS incubated overnight by shake-flask based HPLC analysis
Format: physicochemical
Recorded Metric: solubility thermodynamic (µM)
Note: unit µM is implicit; provide only the numeric part.

So what does the record say about solubility thermodynamic for N#Cc1ncc(C(=O)NCc2ccc(C(=O)NC34CC5CC(CC(C5)C3)C4)cc2)cn1 ? 308

---

Tested on: Chlamydia trachomatis
Test: Anti-chlamydial activity against Chlamydia trachomatis serovar L2 infected in human HEp-2 cells assessed as inhibition of chlamydial inclusion incubated for 24 hrs by Alexa488/DAPI staining based immunofluorescence assay
Format: functional, organism-based
Conditions: serovar L2, HEp-2, 24 h
Reported IC50 values follow for various compounds
Entry rule: numbers only, all in µg/mL.

test_smiles=N#Cc1ncc(C(=O)NCc2ccc(C(=O)NCC3CC3)cc2)cn1 recorded_result=47.7
test_smiles=COc1ccccc1CNC(=O)c1ccc(CNC(=O)c2cnc(C#N)nc2)cc1 recorded_result=16.9
test_smiles=CC(C)CN(CC(C)C)C(=O)c1ccc(CNC(=O)c2cnc(C#N)nc2)cc1 recorded_result=28.4
test_smiles=Cc1ccccc1CNC(=O)c1ccc(CNC(=O)c2cnc(C#N)nc2)cc1 recorded_result=16.9
test_smiles=N#Cc1ncc(C(=O)NCc2ccc(C(=O)NCc3ccccc3)cc2)cn1 recorded_result=19.4
test_smiles=CC(C)(C)N(Cc1ccc(C(=O)Cc2ccccc2)cc1)C(=O)c1cnc(C#N)nc1 recorded_result=9.88

Give IC50 (Chlamydia trachomatis) of the following compound: N#Cc1ncc(C(=O)NCc2ccc(C(=O)NC34CC5CC(CC(C5)C3)C4)cc2)cn1 8.52

Notebook entry, Chlamydia trachomatis assay: IC50 of CCOc1ccccc1CNC(=O)c1ccc(CNC(=O)c2cnc(C#N)nc2)cc1 = ? 15.8

Lab request: please report IC50 under test system Chlamydia trachomatis for CC(=O)c1ccc(CNC(=O)c2cnc(C#N)nc2)cc1 47.4
